assayInfo: NCI Yeast Anticancer Drug Screen. Data for the sgs1 mgt1 strain (AID 161);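 note: 0% = growth of cultures given vehicle only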
testParameters: S. cerevisiae sgs1 mgt1 strain, at 50.0 µM, stronger effect = higher value
Description: Growth inhibition of yeast strains with defined genetic alterations is measured as a screen for potential anti-cancer activity. Selected strains with alterations in DNA damage repair or cell cycle control were exposed to compounds and growth inhibition was measured relative to vehicle treated controls. The strain used in this assay is sgs1 mgt1
About 79,000 compounds went through this panel and 15% of them were active in at least one assay; those are over-represented in the sample as a whole.
propertyLabel: growth inhibition (%)

1. Cc1c(O)c([N+](=O)[O-])cc2c1OCOC2	-3.15
2. O=S(=O)(O)c1ccccc1P(c1ccccc1)c1ccccc1	8.15
3. CC(C)c1ccc(CN)cc1	-29.8
4. CC(=O)Nc1ccc(S(=O)(=O)O)nc1	-6.8
5. CC(C)(C)C(=O)C1C(=O)c2ccccc2C1=O	54
6. CCC(C)N(C(=O)C(C)Br)C(C)CC (configuration not stated)	-19.2
7. CCCCCCCCCCCCCCCCN(O)C(=O)c1cnc[nH]1	30.2
8. CC(C)(O)C1CCC/C1=N/NC(N)=O (configuration not stated)	5.2
9. CN(C)c1ccc(C(=O)CCCN2CCC(O)(c3ccc(Cl)cc3)CC2)cc1	36.6
10. O=C(OCC1OC(OC(=O)c2ccc([N+](=O)[O-])cc2)CC(OC(=O)c2ccc([N+](=O)[O-])cc2)C1OC(=O)c1ccc([N+](=O)[O-])cc1)c1ccc([N+](=O)[O-])cc1 (configuration not stated)	4.1
11. Cc1cc(C2(c3cc(C)c(O)c4ncccc34)OC(=O)c3ccccc32)c2cccnc2c1O	50.6
12. C/C=C(\C)C(=O)OC1C2C(C)C(=O)OC2C(O)C(C)C2C=CC(=O)C21C (configuration not stated)	-7.9
13. O=C(O)CCc1nc[nH]c1[N+](=O)[O-]	-7.55
14. CN(C)CCC(O)(c1ccccc1)C(O)(CCN(C)C)c1ccccc1 (configuration not stated)	-8.45
15. CCCCN=C=NCCC[N+](C)(C)C	0.9
16. O=C1C(Br)=C(c2ccccc2)C(c2ccccc2)=C1c1ccccc1	51
17. CC(C)C1CSC2N1C(=O)C2(OCc1ccccc1)C1CC1 (configuration not stated)	-3.2
18. O=Cc1sccc1NC(=O)c1ccccc1	-18
19. O=S(O)c1cc(Cl)c(O)c(Cl)c1	-7.05
20. C=C(C)C12CC3CC/C(=N/O)C(C1)C3(N1CCOCC1)C/C2=N/O (configuration not stated)	-16.2
21. O=CC(O)CO (configuration not stated)	11.9
22. CN(C)c1ccccc1CN1CCCN(Cc2ccccc2N(C)C)C1c1ccncc1	-12.3
23. COc1nc2ccccc2c(=O)[nH]1	-6.05
24. COc1cc2cccc(NC(=O)c3cc(OC)c(OC)c(OC)c3Br)c2cc1OC	16.6
25. CCOP(=O)(OCC)C(C)(CC)NC1=NC(C(F)(F)F)(C(F)(F)F)NC(=O)N1 (configuration not stated)	-3.3
26. CCCCCCCCCCCCOP(=O)(O)OP(=O)(O)OCC1OC(n2cc(C)c(=O)[nH]c2=O)CC1O (configuration not stated)	47
27. CN(C)c1nc(Cl)cc2nc(Cl)cn12	2.5
28. Cc1nn(-c2ccc([N+](=O)[O-])cc2)c2c1C(C)(C)C(C#N)=C(N)O2	-3.5
29. CC(=O)OCC(NC(=O)C(N)CC(=O)O)C(=O)NCC(=O)Oc1ccc([N+](=O)[O-])cc1 (configuration not stated)	11.8
30. CN(C)c1ccc(/C=C\C(O)c2ccccc2)cc1 (configuration not stated)	32.2
31. O=C(NCCCCC(Br)C(=O)O)c1ccccc1 (configuration not stated)	-33.4
32. Cc1ccc(NC(=O)C(=O)C(C(=O)c2ccc3ccccc3c2)C2OC(=O)c3ccccc32)c(C)c1 (configuration not stated)	32.9
33. Clc1ccc(-c2nc3ccccc3cc2N2CCCCC2)cc1	12.3
34. CC(c1ccccc1)C1OCCO1 (configuration not stated)	-15.8
35. COc1ccc(OC2OC(CO)C(OCc3ccccc3)C(OCc3ccccc3)C2OCc2ccccc2)cc1 (configuration not stated)	-11.7
36. CN1CCCCC1CCO (configuration not stated)	-11.2
37. CC1C(=O)C23CC1CCC2C12COC(O)C1C(C)(C)C(O)CC2OC3=O (configuration not stated)	-12.7
38. CN(C)CC1CCC(=C2CCCC2)C1=O (configuration not stated)	11.8
39. CC1(C)CCCC/C1=N\Nc1ccc([N+](=O)[O-])cc1[N+](=O)[O-]	-2.8
40. CS(=O)c1nsc(S(C)=O)c1C#N (configuration not stated)	-1.5
41. CCOC(=O)c1nc2cc(C(F)(F)F)ccc2nc1Nc1ccc(OC)c(OC)c1	-16.9
42. CC(=O)N1Cc2c(cc(C)[nH]c2=O)C1=O	6.45
43. COC(=O)c1cc(/C=C/C(=O)Cc2ccccc2)cn1S(=O)(=O)c1ccccc1	-13.5
44. CN(C)CC1CCCC/C1=N/O (configuration not stated)	-9.4
45. Cc1cccn(C)c1=O	2.15
46. NS(=O)(=O)c1ccc(N=C2C=CC(=O)C=C2)cc1	-0.2
47. Cc1cccc(C(C)C)c1NC(=O)/C(Cc1c([N+](=O)[O-])cccc1[N+](=O)[O-])=N/NC(=O)CC#N	13.8
